Reference for the values: patent US11981658B2

- assayed.target: EGFR L858R/T790M/C797S (Homo sapiens, UniProt P00533, C797S/L858R/T790M)
- Sequence (P00533 25-1210 T790M/C797S/L858R): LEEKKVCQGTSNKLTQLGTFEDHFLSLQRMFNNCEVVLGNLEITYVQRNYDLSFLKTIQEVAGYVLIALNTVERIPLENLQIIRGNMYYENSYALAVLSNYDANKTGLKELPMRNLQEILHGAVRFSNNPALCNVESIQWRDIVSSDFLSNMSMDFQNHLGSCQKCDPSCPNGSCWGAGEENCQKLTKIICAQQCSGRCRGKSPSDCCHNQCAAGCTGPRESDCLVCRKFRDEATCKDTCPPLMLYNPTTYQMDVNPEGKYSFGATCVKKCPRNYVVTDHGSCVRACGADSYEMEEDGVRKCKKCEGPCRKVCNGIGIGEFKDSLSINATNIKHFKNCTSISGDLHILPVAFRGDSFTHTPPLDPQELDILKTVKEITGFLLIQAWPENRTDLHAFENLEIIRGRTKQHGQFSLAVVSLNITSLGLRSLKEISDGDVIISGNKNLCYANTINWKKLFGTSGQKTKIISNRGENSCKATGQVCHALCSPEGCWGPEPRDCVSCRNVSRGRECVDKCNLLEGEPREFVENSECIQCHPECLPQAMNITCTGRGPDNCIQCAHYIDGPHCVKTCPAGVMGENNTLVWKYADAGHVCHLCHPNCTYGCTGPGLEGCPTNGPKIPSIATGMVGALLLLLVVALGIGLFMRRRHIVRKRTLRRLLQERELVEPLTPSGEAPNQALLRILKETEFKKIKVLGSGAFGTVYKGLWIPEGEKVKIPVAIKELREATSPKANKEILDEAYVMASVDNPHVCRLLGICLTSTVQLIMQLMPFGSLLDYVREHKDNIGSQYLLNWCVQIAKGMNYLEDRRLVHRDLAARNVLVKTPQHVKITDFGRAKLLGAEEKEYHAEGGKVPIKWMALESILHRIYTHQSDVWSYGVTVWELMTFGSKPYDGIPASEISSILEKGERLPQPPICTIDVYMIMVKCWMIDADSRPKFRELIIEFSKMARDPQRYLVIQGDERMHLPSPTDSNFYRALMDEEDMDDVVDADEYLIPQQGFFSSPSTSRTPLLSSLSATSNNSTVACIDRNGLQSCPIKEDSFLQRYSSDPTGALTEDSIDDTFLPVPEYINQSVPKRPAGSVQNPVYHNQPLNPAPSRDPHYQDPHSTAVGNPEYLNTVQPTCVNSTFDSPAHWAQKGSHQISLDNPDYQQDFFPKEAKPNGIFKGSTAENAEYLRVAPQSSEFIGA
- assay.details: Biochemical EGFR kinase inhibition assay (Lance Ultra TR-FRET), triple mutant L858R/T790M/C797S
- details: ATP at Km; read-out: IC50 L858R/T790M/C797S (nM), Km ATP
Counter-ions that a name gives are not always drawn.
property: IC50 (nM)
One number for each entry, in nM.

>>> meas_value("CN1CCC(C#Cc2cnc(Nc3ccnc(-c4cnn(S(=O)(=O)C5CC5)c4)n3)cc2NC2CCC(O)CC2)C1 (stereo not shown) [Example 181]")
0.05
>>> meas_value("CC1(CO)CCN(c2cc(Nc3ccnc(-c4cnn(S(=O)(=O)C5CC5)c4)n3)ncc2C#Cc2cnn(C(F)F)c2)CC1 [Example 305]")
0.5
>>> meas_value("CC1(CO)CCN(c2cc(Nc3ccnc(-c4cnn(S(=O)(=O)C5CC5)c4)n3)ncc2C#Cc2cccnc2)CC1 [Example 260]")
0.2
>>> meas_value("CC1(CO)CCN(c2cc(Nc3ccnc(-c4cnn(S(=O)(=O)C5CC5)c4)n3)ncc2C#Cc2cnn(C3CCOC3)c2)CC1 (stereo not shown) [Example 244]")
0.5
>>> meas_value("CC1(CO)CCN(c2cc(Nc3ccnc(-c4cnn(S(=O)(=O)C5CC5)c4)n3)ncc2C#Cc2cccc(C(=O)N3CCOCC3)c2)CC1 [Example 261]")
0.5
>>> meas_value("O=S(=O)(C1CC1)n1cc(-c2nccc(Nc3cc(N[C@H]4CC[C@@H](O)CC4)c(C#CC4(O)CCOCC4)cn3)n2)cn1 [Example 196]")
0.3
>>> meas_value("CC1(CO)CCN(c2cc(Nc3ccnc(Nc4ccccc4S(C)(=O)=O)n3)ncc2C#Cc2cnn(C(F)F)c2)CC1 [Example 271]")
6.7
>>> meas_value("CN1CCC2(CCN(c3cc(Nc4ccnc(-c5cnn(S(=O)(=O)C6CC6)c5)n4)ncc3C#Cc3cnn(C)c3)CC2)C1 [Example 297, formate]")
0.1

List the reported IC50 of each compound below.
1. Cn1cc(C#Cc2cnc(Nc3ccnc(-c4cnn(S(=O)(=O)C5CC5)c4)n3)cc2N2CCC3(CCNCC3)C2)cn1 [Example 154]
2. O=S(=O)(C1CC1)n1cc(-c2nccc(Nc3cc(N[C@H]4CC[C@@H](O)CC4)c(C#CC4CCOCC4)cn3)n2)cn1 [Example 178]
3. O=S(=O)(C1CC1)n1cc(-c2nccc(Nc3cc(NC4CCC(CO)CC4)c(C#Cc4cnn(C5CC5(F)F)c4)cn3)n2)cn1 (stereo not shown) [Example 327]
4. O=S(=O)(C1CC1)n1cc(-c2nccc(Nc3cc(N[C@H]4CC[C@@H](CO)CC4)c(C#Cc4cnn(C(F)F)c4)cn3)n2)cn1 [Example 308]
5. CC(C)(O)[C@H]1CC[C@@H](Nc2cc(Nc3ccnc(-c4cnn(S(=O)(=O)C5CC5)c4)n3)ncc2C#Cc2cnn(CC(F)F)c2)CC1 [Example 325]

*A*
[0.3, 0.2, 0.8, 3.2, 0.8]
